Each recorded value in this set is attributed to ChEMBL document CHEMBL3421558.

Tested on: Staphylococcus aureus
Assay: Antimicrobial activity against methicillin-resistant Staphylococcus aureus OIT971 by micro broth dilution or agar based method
Type: functional
MEASURED ENDPOINT: MIC (µg/mL)
Please reply with the bare figure in µg/mL and do not write the unit itself.

Consider the reported MIC for these compounds:
[
  {
    "STRUCTURE SMILES STRING": "O=C1COc2ccc(CNC34CCC(CCc5c(F)cnc6ccc(C(=O)O)nc56)(CC3)OC4)nc2N1",
    "MIC [µg/mL]": 16
  },
  {
    "STRUCTURE SMILES STRING": "CN(C)c1cnc2c(CCC34CCC(NCc5ccc6c(n5)NC(=O)CO6)(CC3)CO4)c(F)cnc2c1",
    "MIC [µg/mL]": 16
  },
  {
    "STRUCTURE SMILES STRING": "COc1ccc2ncc(C#N)c(CCC34CCC(NCc5ccc6c(n5)NC(=O)CO6)(CC3)CO4)c2n1",
    "MIC [µg/mL]": 0.008
  },
  {
    "STRUCTURE SMILES STRING": "N#Cc1ccc2ncc(C#N)c(CCC34CCC(NCc5ccc6c(n5)NC(=O)CO6)(CC3)CO4)c2n1",
    "MIC [µg/mL]": 0.125
  },
  {
    "STRUCTURE SMILES STRING": "COc1nc2c(CCC34CCC(NCc5ccc6c(n5)NC(=O)CO6)(CC3)CO4)ccnc2cc1Cl",
    "MIC [µg/mL]": 0.25
  }
]

The measured MIC associated with O=C1COc2ccc(CNC34CCC(CCc5c(F)cnc6ccc(O)nc56)(CC3)OC4)nc2N1 reads 0.25

The measured MIC associated with O=C1COc2ccc(CNC34CCC(CCc5ccnc6cc(C(F)(F)F)cnc56)(CC3)OC4)nc2N1 reads 64

The measured MIC associated with COc1nc2c(CCC34CCC(NCc5ccc6c(n5)NC(=O)CO6)(CC3)CO4)ccnc2cc1F reads 0.063

The measured MIC associated with O=C1COc2ccc(CNC34CCC(CCc5ccnc6cc(F)cnc56)(CC3)OC4)nc2N1 reads 8
